From: PubChem BioAssay

Reported fluorescence ratio (interference) values for the following molecules.
- measurementProtocol: compounds altering Cy5-DNA-NS3h complex signal – biochemical, LOPAC1280, artefact control for HCV NS3 helicase inhibitor project (AID 687037)
- assaySetup: Cy5-DNA-NS3h complex fluorescence interference counterscreen
Activity calls are given as the source filed them. No rule for the calls is given here.

| smilesCode | fluorescence ratio (interference) |
| --- | --- |
| NCCNS(=O)(=O)c1cccc2c(Cl)cccc12 | 1 (inactive) |
| O=c1[nH]c2cc(C(F)(F)F)ccc2n1-c1cc(C(F)(F)F)ccc1O | 0.9 (inactive) |
| CN(C)C(=O)n1nnnc1Cc1ccc(-c2ccccc2)cc1 | 1 (inactive) |
| N#C/C(=C\c1ccc(O)c(O)c1)C(=O)Nc1ccccc1 | 0.9 (inactive) |
| O=c1[nH]c(=O)n([C@H]2C[C@H](O)[C@@H](CO)O2)cc1/C=C/Br | 1 (inactive) |
| O=C(Nc1nc2ccccc2n1CCN1CCOCC1)c1cccc([N+](=O)[O-])c1 | 1.1 (inactive) |
| O=C1NC(=O)/C(=C/c2ccc(-c3ccc(F)cc3O)o2)S1 | 1 (inactive) |
| CCc1ccc(/C=C2/SC(=S)NC2=O)cc1 | 1 (inactive) |
| NS(=O)(=O)c1cccc2c1c([N+](=O)[O-])cc1nc(O)c(O)nc12 | 1 (inactive) |
| C[C@H](Cc1ccc(O)c(O)c1)[C@@H](C)Cc1ccc(O)c(O)c1 | 1 (inactive) |
| CC1(C)C(=O)N(CCN2CCC(C(=O)c3ccc(F)cc3)CC2)c2ccccc21 | 1 (inactive) |
